target-system: Rat whole blood (Rattus norvegicus)
Sequence (P15384 whole entry): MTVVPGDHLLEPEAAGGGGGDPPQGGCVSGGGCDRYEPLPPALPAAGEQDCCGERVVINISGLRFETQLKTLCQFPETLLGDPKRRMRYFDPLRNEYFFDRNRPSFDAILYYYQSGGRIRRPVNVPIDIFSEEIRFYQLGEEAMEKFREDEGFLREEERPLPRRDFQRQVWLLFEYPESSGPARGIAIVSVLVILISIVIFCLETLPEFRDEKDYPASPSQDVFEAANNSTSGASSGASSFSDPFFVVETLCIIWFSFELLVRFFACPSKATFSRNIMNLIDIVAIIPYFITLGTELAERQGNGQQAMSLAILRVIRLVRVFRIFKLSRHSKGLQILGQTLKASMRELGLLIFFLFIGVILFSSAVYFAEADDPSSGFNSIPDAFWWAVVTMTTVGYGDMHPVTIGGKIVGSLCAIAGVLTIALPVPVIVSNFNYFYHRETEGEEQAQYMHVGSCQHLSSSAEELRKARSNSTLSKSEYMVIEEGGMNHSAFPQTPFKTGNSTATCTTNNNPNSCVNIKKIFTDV
Format: cell-based
particulars: IL-17A release, thapsigargin, 24 Hr, at least 2 replicates
pIC50: −log10 of the molar value. Bridges are numbered along the chain shown (N, C = ends). [ ]: non-standard residue; d: D form. Nle = CCCC[C@H](N)C(=O)O; Abu = CC[C@H](N)C(=O)O
Reported pIC50 is given for each of the following substances.
assay-endpoint: pIC50

- H-CSASVECKQKCLKAIGCIFGKC[Nle]NKKCKCYPC-NH2 (cysteine pairing not given here) [compound 84]: 8.96
- LRCSASVECKQKCLAAIGSIFGKCMNKKCKCYPR [compound 105]: 9.44
- H-S[Nle]D[Nle]RCSASVECKQKCLKAIGSIFGKCMNKKCKC[F(4-F)]PR-NH2 [compound 87]: 9.47
- H-S[Nle]D[Nle]RCSASVECKQKCLKAIGSIFG[homo-Lys]CMNKKCKCYPR-NH2 [compound 69]: 8.57
- H-S[Nle]D[Nle]RCSASVECKQKCLKAIGSIFGKCMNKKCKC[F(4-NO2)]PR-NH2 [compound 88]: 8.89
- H-S[Nle]D[Nle]RCSASVECKQKCLKAIGSIFGKCMNKKCKC[F(4-CH3)]PR-NH2 [compound 89]: 9.27
- Ac-LRCSASVECKQKCLAAIGSIFGKC[Nle]NKKCKCYPR-OH (cysteine pairing not given here) [compound 104]: 9.05
- H-S[Nle]D[Nle]RCSASVECKQKCLVAIGSIFGKCMNKKCKCYPR-NH2 (cysteine pairing not given here) [compound 77]: 9.41
- H-S[Nle]D[Nle]RCSASVECKQKCLAAIGCIFGKC[Nle]NKKCKCYPC-NH2 (cysteine pairing not given here) [compound 85]: 9.14
- H-S[Nle]D[Nle]RCSA[Abu]VECKQKCLKAIGSIFGKCMNKKCKCYPR-NH2 (cysteine pairing not given here) [compound 68]: 9.03
- H-P[Nle]D[Nle]RCSASVECAQKCLAAIGSIFGKCMNKKCKCYPR-OH (cysteine pairing not given here) [compound 96]: 9.49
- H-S[Nle]D[Nle]RCSASVECKEKCLQAIGSIFGKC[Nle]NKKCKCYPR-NH2 (cysteine pairing not given here) [compound 82]: 9.16
- H-P[Nle]D[Nle]RCSASVECKQKCLKAIGCIFGKC[Nle]NKKCKCYPC-OH (cysteine pairing not given here) [compound 86]: 8.96
- H-S[Nle]D[Nle]RCSASVECKQKCLKAIGSIFGKCMNKKCKCYQ-NH2 (cysteine pairing not given here) [compound 74]: 8.80
- H-LRCSASVECKQKCLKAIGSIFGKC[Nle]NKKCKCYPR-OH (cysteine pairing not given here) [compound 103]: 8.68
- H-S[Nle]D[Nle]RCSASVECKQKCLKAIGSIFGKC[Nle]NKKCKCYPR-OH (cysteine pairing not given here) [compound 80]: 9.28
- H-N[Nle]D[Nle]RCSASVECEQKCLKAIGSIFGKC[Nle]NKKCKCYPR-NH2 (cysteine pairing not given here) [compound 47]: 9.00
- NMDMRCSASVECKQKCLKAIHSIFGKCMNKKCKCYPR [compound 37]: 9.15
- H-S[Nle]D[Nle]RCSASVECK[2-Amino-5-carboxypentanoyl]KCLKAIGSIFGKCMNKKCKCYPR-NH2 [compound 73]: 9.28
- H-P[Nle]D[Nle]RCSASVECKEKCL[homo-Gln]AIGSIFGKC[Nle]NKKCKCYPR-NH2 [compound 83]: 8.85
- NMDMRCSASVECKQKCLKAIGSIFGKCMNKKCVCYPR [compound 42]: 8.55
- H-P[Nle]E[Nle]RCSASVECKQKCLLAIGSIFGKC[Nle]NKKCKCYPR-OH (cysteine pairing not given here) [compound 93]: 9.30
- H-S[Nle]D[Nle]RCSASVECVQKCLKAIGSIFGKCMNKKCKCYPR-NH2 (cysteine pairing not given here) [compound 72]: 9.33
- H-PIDERCSASVECKQKCLAAIGSIFGKC[Nle]NKKCKCYPR-OH (cysteine pairing not given here) [compound 94]: 9.06
- H-N[Nle]D[Nle]RCSASVECQQKCLKAIGSIFGKC[Nle]NKKCKCYPR-NH2 (cysteine pairing not given here) [compound 48]: 8.96
- H-NMDMRCSASVECKQKCLKAIGSIFGKCMNKKCKCYPRRRTA-NH2 (disulfide 6-27, 12-32, 16-34) [compound 28]: 9.24
